Origin of values: PubChem BioAssay AID1347416

- method_summary: qHTS Validation assay for Inhibitors of Plasmodium falciparum Dd2 growth in vitro; note: nearly all actives have a fitted effect of over 70% in size
- measurement_setup: P. falciparum Dd2 in RBCs, SYBR Green growth, 72 h; series mostly up to 28.7 µM
The campaign covered roughly 4,100 compounds. About 1,600 (39%) were called active. About 25% were inconclusive and are not listed. Calls come from the whole dose curve; as a rule, active = well fitted inhibition curve with a large enough effect; inconclusive = small, poorly fitted or top-dose-only effect; inactive = no such curve, though single readings can be large or run the other way. This is one part of the list.
Thanks in advance; please answer with one of these: T = active, F = inactive

query: Dear all, I need the recorded test outcome for CC1=C(C(=O)NCc2ccccn2)C2(CCC(C)CC2)OC1=O (configuration not stated) , thank you.
result: F

query: Dear all, I need the recorded test outcome for CCCc1c(C)[nH]c2ccccc2c1=O , thank you.
result: T

query: Dear all, I need the recorded test outcome for Cc1cc(CN2CCC(CO)(Cc3ccccc3Cl)CC2)cc(C)c1O , thank you.
result: T

query: Dear all, I need the recorded test outcome for COCCn1cnc2ccc(-c3ccccc3)nc2c1=O , thank you.
result: F

query: Dear all, I need the recorded test outcome for CCOc1ccc(-c2cc3c(=O)n(CCNC(=O)c4ccc(C#N)cc4)ccn3n2)cc1 , thank you.
result: F

query: Dear all, I need the recorded test outcome for COc1ccc([C@@]2(C(C)C)ON(c3ccccc3C(F)(F)F)C2=O)cc1 , thank you.
result: T

query: Dear all, I need the recorded test outcome for Cn1cnc2ccc(-c3cccc(O)c3)nc2c1=O , thank you.
result: T

----------
- method_summary: qHTS Validation assay for Inhibitors of Plasmodium falciparum Dd2 growth in vitro; note: nearly all actives have a fitted effect of over 70% in size
- measurement_setup: P. falciparum Dd2 in RBCs, SYBR Green growth, 72 h; series mostly up to 28.7 µM
The campaign covered roughly 4,100 compounds. About 1,600 (39%) were called active. Not shown: some 25% with an inconclusive outcome. The call rests on the fitted dose curve; in most records, active means well fitted inhibition curve with a large enough effect; inconclusive means small, poorly fitted or top-dose-only effect; inactive means no such curve, though single readings can be large or run the other way. This is one part of the list.
Thanks in advance; please answer with one of these: TRUE (active), FALSE (inactive)

query: Dear all, I need the recorded test outcome for COc1ccccc1N1CCN(C(=O)c2ccc3c(=O)n(Cc4ccc5c(c4)OCO5)c(=O)[nH]c3c2)CC1 , thank you.
result: TRUE

query: Dear all, I need the recorded test outcome for CC1(c2ccccn2)Nc2ccccc2-c2nc3ccccc3n21 (stereo unspecified) , thank you.
result: TRUE

query: Dear all, I need the recorded test outcome for CCN(c1ccccc1)S(=O)(=O)c1ccc(NC(=O)c2cc(=O)c3cc(C)ccc3o2)cc1 , thank you.
result: FALSE

query: Dear all, I need the recorded test outcome for COc1ccc(-c2noc(CCCC(=O)N3CCCC3c3nc(C4CCOCC4)no3)n2)cc1OC (stereo unspecified) , thank you.
result: FALSE

query: Dear all, I need the recorded test outcome for CCOC(=O)c1c[nH]c2cc(OCC(C)C)c(OCC(C)C)cc2c1=O , thank you.
result: TRUE

query: Dear all, I need the recorded test outcome for COc1ccc2cc1Nc1ccc(cc1)C[C@H](NCc1ccc(C)o1)C(=O)N(C)[C@H](C(=O)NCCC(C)C)C2 , thank you.
result: TRUE

query: Dear all, I need the recorded test outcome for CCOc1ccc(CC(=O)N2CCC[C@H]2c2nc(-c3ccc(C)cc3)no2)cc1 , thank you.
result: FALSE

query: Dear all, I need the recorded test outcome for O=C(c1ccc(F)c(Cl)c1)N1CCN(c2cc(C(F)(F)F)ncn2)CC1 , thank you.
result: FALSE

query: Dear all, I need the recorded test outcome for CCCCCNc1nc2sc3c(c2c(=O)n1-c1cccc(Cl)c1)CCN(C)C3 , thank you.
result: TRUE

query: Dear all, I need the recorded test outcome for Cc1cccc(-c2ccc3c(c2)C(=O)N2C[C@H](O)C[C@H]2C(=O)N3)c1C , thank you.
result: FALSE

query: Dear all, I need the recorded test outcome for COc1ccc2c(c1)C1(Nc3ccccc3-c3nc4ccccc4n31)C(=O)N2 (stereo unspecified) , thank you.
result: TRUE

query: Dear all, I need the recorded test outcome for COc1ccc2ncc3c(-c4ccc(C)c(C)c4)nn(CC(=O)NC4CCCCC4)c3c2c1 , thank you.
result: FALSE

query: Dear all, I need the recorded test outcome for CC(C)(C)CC(=O)N1CCC(N2C(=O)CCC2C(=O)NCc2ccccc2)CC1 (stereo unspecified) , thank you.
result: FALSE

query: Dear all, I need the recorded test outcome for CCOC(=O)c1c[nH]c2c(C)cc(C)cc2c1=O , thank you.
result: TRUE

query: Dear all, I need the recorded test outcome for CCCn1c2c(c(=N)c3c1CCC3)CCCC2 , thank you.
result: TRUE

query: Dear all, I need the recorded test outcome for CC(C(=O)N1CCCN(c2cc(-c3ccc(Cl)cc3)[nH]n2)CC1)c1ccccc1 (stereo unspecified) , thank you.
result: FALSE

query: Dear all, I need the recorded test outcome for CCOC(=O)c1cn(CC)c2c(ccc3ccccc32)c1=O , thank you.
result: FALSE

query: Dear all, I need the recorded test outcome for COc1ccc2cc1Nc1ccc(cc1)C[C@H](NCc1cccc(C(=O)O)c1)C(=O)N(C)[C@H](C(=O)Nc1ccccc1OCc1ccccc1)C2 , thank you.
result: TRUE

query: Dear all, I need the recorded test outcome for Clc1ccc2c(N3CCCC3)ccnc2c1 , thank you.
result: TRUE

query: Dear all, I need the recorded test outcome for COCCOc1cc(-c2noc([C@@H]3CCCN3CC3CC3)n2)ccn1 , thank you.
result: TRUE

query: Dear all, I need the recorded test outcome for Cc1ccsc1CN1CCCN(S(=O)(=O)c2ccccc2)CCC(=O)NCC1 , thank you.
result: FALSE

query: Dear all, I need the recorded test outcome for Cc1cc(C(=O)CN2C(=O)NC(C)(c3cccc(Br)c3)C2=O)c(C)n1Cc1ccco1 (stereo unspecified) , thank you.
result: TRUE

query: Dear all, I need the recorded test outcome for Cc1cc(C(=O)Nc2cnn(Cc3ccc(Cl)cc3Cl)c2)no1 , thank you.
result: TRUE

query: Dear all, I need the recorded test outcome for CCCCNc1nc2sc3c(c2c(=O)n1-c1cccc(Cl)c1)CCN(C)C3 , thank you.
result: TRUE

query: Dear all, I need the recorded test outcome for Cc1cc(C(=O)CN2C(=O)NC(c3ccccc3)(c3ccccc3)C2=O)c(C)n1Cc1ccco1 , thank you.
result: TRUE

query: Dear all, I need the recorded test outcome for Cc1ccc(-c2noc(CCC(=O)Nc3ccc(C)cn3)n2)cc1 , thank you.
result: FALSE
